assay: Metabolic stability in human liver microsomes; assay type: in vitro ADME; details: pH 7.4; human liver microsomes, 2 μM, 40 min
The following compounds are shown together with reported microsomal CLint at 2 μM values.
Field format: number, assumed µL/min/mg, no unit text.

{"columns": ["COMPOUND", "OBSERVED"],
 "data": [
  ["CC(C)C[C@H](NC(=O)[C@H](Cc1ccccc1)NC(=O)c1cnccn1)B(O)O [bortezomib, reference compound]", 48]
]}

Now turn to the next compound.
Could you share which microsomal CLint at 2 μM value was measured for O=C(N[C@@H](Cc1ccccc1)C(=O)N[C@H](B(O)O)C1CCCC1)c1cnccn1 ?
42

====

test: Cytotoxicity MTS assay; assay type: cell-based; settings: human, MM.1S multiple myeloma cells, 250 nM, 72 h (Figure S3), read-out: viable cells
EXPERIMENTAL READOUT: viability at 72 h, […] (%)
Field format: number, assumed %, no unit text.

Could you share which viability at 72 h, […] value was measured for O=C(N[C@@H](Cc1coc2ccccc12)B(O)O)[C@@H]1C[C@H]2CC[C@@H]1O2 ?
87

====

The following compounds are shown together with reported pIC50 values.
molecular target: β1c subunit of human cCP (Homo sapiens, UniProt P28072+Q99436); construct: purchased Boston Biochem, Inc; experiment: IC50 determination with subunit-specific fluorogenic substrate Ac-nLPnLD-AMC; type: biochemical; settings: human cCP; mean of at least three experiments; NA: not active at 50 μM
Hey, just a heads up that pIC50 is the negative log base 10 of the concentration in molar.

{"columns": ["MOLECULE SMILES", "pIC50"],
 "data": [
  ["O=C(N[C@@H](Cc1ccccc1)C(=O)N[C@H](B(O)O)c1ccc(F)cc1)c1cnccn1", 6.28]
]}

Kindly state the measured pIC50 obtained for O=C(N[C@@H](Cc1ccccc1)C(=O)N[C@H](B(O)O)C1CC1)c1cnccn1 with β1c subunit of human cCP (Homo sapiens, UniProt P28072+Q99436).
6.08

Kindly state the measured pIC50 obtained for O=C(N[C@@H](Cc1ccccc1)C(=O)N[C@H](B(O)O)C1CCCC1)c1cnccn1 with β1c subunit of human cCP (Homo sapiens, UniProt P28072+Q99436).
7.74

Kindly state the measured pIC50 obtained for O=C(N[C@@H](Cc1ccccc1)C(=O)N[C@H](B(O)O)c1ccc2c(c1)OCO2)c1cnccn1 with β1c subunit of human cCP (Homo sapiens, UniProt P28072+Q99436).
6.50

Kindly state the measured pIC50 obtained for CC[C@H](NC(=O)[C@H](Cc1ccccc1)NC(=O)c1cnccn1)B(O)O with β1c subunit of human cCP (Homo sapiens, UniProt P28072+Q99436).
7.68

Kindly state the measured pIC50 obtained for COc1ccc([C@H](NC(=O)[C@H](Cc2ccccc2)NC(=O)c2cnccn2)B(O)O)cc1 with β1c subunit of human cCP (Homo sapiens, UniProt P28072+Q99436).
5.87

Kindly state the measured pIC50 obtained for Cc1ccc([C@H](NC(=O)[C@H](Cc2ccccc2)NC(=O)c2cnccn2)B(O)O)cc1 with β1c subunit of human cCP (Homo sapiens, UniProt P28072+Q99436).
6.26

Kindly state the measured pIC50 obtained for O=C(N[C@@H](Cc1ccccc1)C(=O)N[C@H](B(O)O)c1ccc(Cl)cc1)c1cnccn1 with β1c subunit of human cCP (Homo sapiens, UniProt P28072+Q99436).
6.05

Kindly state the measured pIC50 obtained for O=C(N[C@@H](Cc1ccccc1)C(=O)N[C@H](B(O)O)c1ccc(-c2ccccc2)cc1)c1cnccn1 with β1c subunit of human cCP (Homo sapiens, UniProt P28072+Q99436).
5.88

Kindly state the measured pIC50 obtained for O=C(N[C@@H](Cc1ccccc1)C(=O)N[C@@H](Cc1ccccc1)B(O)O)c1cnccn1 with β1c subunit of human cCP (Homo sapiens, UniProt P28072+Q99436).
6.63
